target: recombinant full-length USP7 (Homo sapiens); construct: A 25 μl reaction volume containing recombinant full-length USP7 (62 pM); assay: USP7-mediated ubiquitin-rhodamine cleavage assay; type: biochemical; conditions: recombinant full-length USP7 62 pM; ubiquitin-rhodamine 100 nM; 30-minute incubation with compound, 1 hour reaction at room temperature; read-out: Potency: USP7 IC50
IC50 reference

1) Cc1cc(C#N)cc(-c2ccnc3cc(CN4C(=O)C5C6CCC(C6)C5C4=O)sc23)c1O[C@@H]1CNC[C@@H]1F (stereo partly shown) = < 1 µM
2) CCC(O)c1cc2nccc(-c3cc(C#N)cc(C)c3OCC3(C#N)CNC3)c2s1 (stereo not shown) = < 1 µM
3) Cc1cc(Cl)cc(-c2ccnc3cc(CN4CCCCS4(=O)=O)sc23)c1O[C@@H]1CNC[C@@H]1F = 1 to 10 µM

q: Which IC50 value is on record for CN[C@H]1CC[C@@H](Oc2c(C)cc(Cl)cc2-c2ccnc3cc(CO)sc23)CC1 ?
a: 10 to 30 µM

* * *

pIC50 reference
molecular target: recombinant full-length USP7 (Homo sapiens, UniProt Q93009); construct: A 25 μl reaction volume containing recombinant full-length USP7 (62 pM); experiment: USP7-mediated ubiquitin-rhodamine cleavage assay; assay type: biochemical; details: recombinant full-length USP7 62 pM; ubiquitin-rhodamine 100 nM; 30-minute incubation with compound, 1 hour reaction at room temperature; read-out: Potency: USP7 IC50
Sequence (Q93009 whole entry): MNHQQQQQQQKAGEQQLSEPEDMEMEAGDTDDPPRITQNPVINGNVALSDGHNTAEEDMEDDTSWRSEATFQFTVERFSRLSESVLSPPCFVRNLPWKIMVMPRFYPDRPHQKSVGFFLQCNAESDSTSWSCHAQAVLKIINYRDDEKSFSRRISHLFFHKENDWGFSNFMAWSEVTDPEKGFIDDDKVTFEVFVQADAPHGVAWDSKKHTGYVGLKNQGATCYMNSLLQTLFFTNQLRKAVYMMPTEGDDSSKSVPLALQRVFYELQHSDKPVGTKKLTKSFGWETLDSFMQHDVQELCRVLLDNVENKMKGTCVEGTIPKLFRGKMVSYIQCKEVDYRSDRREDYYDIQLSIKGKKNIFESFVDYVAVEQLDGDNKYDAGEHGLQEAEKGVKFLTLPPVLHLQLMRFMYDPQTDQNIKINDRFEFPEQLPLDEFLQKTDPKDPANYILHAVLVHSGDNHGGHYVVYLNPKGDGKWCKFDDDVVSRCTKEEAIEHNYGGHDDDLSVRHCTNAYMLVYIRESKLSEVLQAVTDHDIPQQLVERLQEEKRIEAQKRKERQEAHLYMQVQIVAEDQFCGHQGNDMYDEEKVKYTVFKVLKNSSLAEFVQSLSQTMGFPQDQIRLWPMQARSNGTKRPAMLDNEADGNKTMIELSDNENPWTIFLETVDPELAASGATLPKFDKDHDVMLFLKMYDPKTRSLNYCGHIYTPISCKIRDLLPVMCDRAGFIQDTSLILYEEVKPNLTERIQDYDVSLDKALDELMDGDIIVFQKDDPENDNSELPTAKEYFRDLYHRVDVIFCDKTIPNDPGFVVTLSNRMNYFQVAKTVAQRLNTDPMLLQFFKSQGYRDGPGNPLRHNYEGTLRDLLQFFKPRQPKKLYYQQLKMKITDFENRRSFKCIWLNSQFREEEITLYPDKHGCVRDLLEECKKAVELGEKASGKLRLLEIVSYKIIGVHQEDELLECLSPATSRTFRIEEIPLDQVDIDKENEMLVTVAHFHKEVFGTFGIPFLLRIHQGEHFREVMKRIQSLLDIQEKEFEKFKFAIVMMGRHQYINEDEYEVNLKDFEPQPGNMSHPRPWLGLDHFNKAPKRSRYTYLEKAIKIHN
pIC50: −log10 of the molar value. Counter-ions that a name gives are not always drawn.

Answered examples (7):
1) Cc1cc(Cl)cc(-c2ccnc3ccsc23)c1OC1CCNC1=O (centres unmarked) = < 4.52
2) Cc1cc(Cl)cc(-c2ccnc3cc(CN4C(=O)C5C(C4=O)C5(C)C)sc23)c1O[C@@H]1CCNC[C@@H]1C (some centres unmarked) [Example 366, dihydrochloride] = > 6.00
3) Cc1cc(Cl)cc(-c2ncnc3cc(CN4C(=O)CCCC4=O)sc23)c1O[C@H]1CCCNC1 = > 6.00
4) Cc1cc(Cl)cc(-c2ccnc3cc(CO)sc23)c1OCC12CNCC1C2 (centres unmarked) = 4.52 to 5.00
5) Cc1cc(Cl)cc(-c2ccnc3cc(CO)sc23)c1OC(C)C1CNC1 (centres unmarked) = 4.52 to 5.00
6) CC[C@@H](c1cc2nccc(-c3cc(Cl)cc(C)c3OC3CCNCC3)c2s1)N1C(=O)CCC1=O = 5.00 to 6.00
7) Cc1cc(F)cc(-c2ccnc3cc(CO)sc23)c1O[C@H]1CCCNC1 = 4.52 to 5.00

// moving on: another record for pIC50
q: Which pIC50 value is on record for Cc1cc(Cl)cc(-c2ccnc3cc(CN4C(=O)CCN(C)C4=O)sc23)c1O[C@H]1CCCNC1 ?
a: > 6.00

* * *

target: recombinant full-length USP7 (Homo sapiens); construct: A 25 μl reaction volume containing recombinant full-length USP7 (62 pM); assay: USP7-mediated ubiquitin-rhodamine cleavage assay; type: biochemical; details: recombinant full-length USP7 62 pM; ubiquitin-rhodamine 100 nM; 30-minute incubation with compound, 1 hour reaction at room temperature; read-out: Potency: USP7 IC50
pIC50: −log10 of the molar value.
pIC50 reference

1) Cc1cc2nccc(-c3cc(C#N)cc(C)c3O[C@H]3CCCNC3)c2s1 = 4.52 to 5.00
2) Cc1cc(Cl)cc(-c2ccnc3cc(CN4C(=O)C5C(C4=O)C5(C)C)sc23)c1O[C@@H]1CNCC[C@H]1C (stereo partly shown) = > 6.00
3) COc1ccc(C(=O)O)cc1-c1ccnc2cc(Cn3c(=O)ccn(CC(F)(F)F)c3=O)sc12 = 5.00 to 6.00
4) Cc1cc([N+](=O)[O-])cc(-c2ccnc3cc(Cn4c(=O)ccn(CC(F)(F)F)c4=O)sc23)c1OC1CCN(C(C)(C)C)CC1 = > 6.00

// moving on: another record for pIC50
q: I'm curious: which pIC50 was measured for Cc1cc(Cl)cc(-c2ccnc3cc(CN4C(=O)CCC4=O)sc23)c1O[C@H]1[C@@H]2CNC[C@H]1C2 tested on recombinant full-length USP7 (Homo sapiens)?
a: > 6.00

* * *

target: recombinant full-length USP7 (Homo sapiens, UniProt Q93009); construct: A 25 μl reaction volume containing recombinant full-length USP7 (62 pM); assay: USP7-mediated ubiquitin-rhodamine cleavage assay; type: biochemical; conditions: recombinant full-length USP7 62 pM; ubiquitin-rhodamine 100 nM; 30-minute incubation with compound, 1 hour reaction at room temperature; read-out: Potency: USP7 IC50
IC50 reference

1) Cc1cc(Cl)cc(-c2ccnc3cc(CN4C(=O)CCC4=O)sc23)c1O[C@@H]1CN(C)C[C@@H]1F [Example 124] = < 1 µM
2) O=C1CCC(=O)N1Cc1cc2nccc(-c3cc(Cl)cc(Br)c3O[C@@H]3CNC[C@@H]3F)c2s1 [Example 102] = < 1 µM

q: Which IC50 value is on record for Cc1cc(Cl)cc(-c2ccnc3cc([C@H](C)N4C(=O)CCC4=O)sc23)c1O[C@@H]1CCNC[C@H]1F [Example 289] ?
a: < 1 µM

q: What do you get for Cc1cc(Cl)cc(-c2ncnc3cc(CN4C(=O)CCCC4=O)sc23)c1OC1CCNCC1 [Example 259] ?
a: 1 to 10 µM

* * *

pIC50 reference
target: recombinant full-length USP7 (Homo sapiens, UniProt Q93009); construct: A 25 μl reaction volume containing recombinant full-length USP7 (62 pM); assay: USP7-mediated ubiquitin-rhodamine cleavage assay; type: biochemical; conditions: recombinant full-length USP7 62 pM; ubiquitin-rhodamine 100 nM; 30-minute pre-incubation, 1 hour reaction at room temperature; read-out: Potency (USP7 IC50)
pIC50: −log10 of the molar value. Where a name gives a salt, the structure may show the parent alone.

Answered examples (3):
1. Cc1cc(Cl)cc(-c2ccnc3cc(Cn4c(=O)ccn(C)c4=O)sc23)c1OC1CCNCC1(C)C (stereo not shown) = > 6.00
2. Cc1cc(Cl)cc(-c2ccnc3cc(CN4C(=O)CCC4=O)sc23)c1OC1CC(C)(N)C1 (stereo not shown) [Example 444, dihydrochloride] = > 6.00
3. Cc1cc(Cl)cc(-c2ccnc3cc(Cn4c(=O)ccn(C)c4=O)sc23)c1O[C@@H]1CCN(C)C[C@@H]1C = > 6.00

// moving on: another record for pIC50
q: I'm curious: which pIC50 was measured for Cc1cc(Cl)cc(-c2ccnc3cc(Cn4c(=O)ccn(C)c4=O)sc23)c1OC1CC(NCCO)C1 (stereo not shown) tested on recombinant full-length USP7 (Homo sapiens, UniProt Q93009)?
a: > 6.00

* * *

target: recombinant full-length USP7 (Homo sapiens, UniProt Q93009); construct: A 25 μl reaction volume containing recombinant full-length USP7 (62 pM); experiment: USP7-mediated ubiquitin-rhodamine cleavage assay; type: biochemical; settings: recombinant full-length USP7 62 pM; ubiquitin-rhodamine 100 nM; 30-minute incubation with compound, 1 hour reaction at room temperature; read-out: Potency: USP7 IC50
measurement.name: IC50

1. Cc1cc(Cl)cc(-c2ccnc3cc(CN4C(=O)C5C(C4=O)C5(C)C)sc23)c1O[C@@H]1CNC[C@@H]1F (stereo partly shown) [Example 312] = < 1000 nM
2. Cc1cc(Cl)cc(-c2ccnc3cc(CN4C(=O)CCC4=O)sc23)c1O[C@H]1CCNC[C@H]1C [Example 229] = < 1000 nM
3. Cc1cc(Cl)cc(-c2ccnc3cc(CN4C(=O)CCCC4=O)sc23)c1OC1CCNCC1 [Example 235] = < 1000 nM

q: Which IC50 value is on record for Cc1cc(Cl)cc(-c2ncnc3cc(Cn4c(C(F)(F)F)cccc4=O)sc23)c1O[C@@H]1CNC[C@@H]1F [Example 148] ?
a: 10000 to 30000 nM

* * *

molecular target: recombinant full-length USP7 (Homo sapiens, UniProt Q93009); construct: A 25 μl reaction volume containing recombinant full-length USP7 (62 pM); test: USP7-mediated ubiquitin-rhodamine cleavage assay; type: biochemical; settings: recombinant full-length USP7 62 pM; ubiquitin-rhodamine 100 nM; 30-minute incubation with compound, 1 hour reaction at room temperature; read-out: Potency: USP7 IC50
pIC50: −log10 of the molar value.
measurement.name: pIC50

q: I'm curious: which pIC50 was measured for Cc1cc(Cl)cc(-c2ccnc3cc(Cn4c(=O)cc[nH]c4=O)sc23)c1OC1CCNCC1 [Example 184] tested on recombinant full-length USP7 (Homo sapiens, UniProt Q93009)?
a: > 6.00

* * *

IC50 reference
target: recombinant full-length USP7 (Homo sapiens); construct: A 25 μl reaction volume containing recombinant full-length USP7 (62 pM); test: USP7-mediated ubiquitin-rhodamine cleavage assay; format: biochemical; settings: recombinant full-length USP7 62 pM; ubiquitin-rhodamine 100 nM; 30-minute incubation with compound, 1 hour reaction at room temperature; read-out: Potency: USP7 IC50

Answered examples (3):
1) Cc1cc(Cl)cc(-c2ncnc3cc(CN4C(=O)CCN(C)C4=O)sc23)c1O[C@H]1CCCNC1 = < 1000 nM
2) Cc1cc(Cl)cc(-c2ccnc3cc(Cn4c(=O)ccn(CC(F)(F)F)c4=O)sc23)c1OC1(C(F)(F)F)CCCNC1 (stereo not shown) = < 1000 nM
3) Cc1cc2nccc(-c3cc(Cl)cc(C)c3OCC3CNC3)c2s1 = 1000 to 10000 nM

// moving on: another record for IC50
q: Which IC50 value is on record for Cc1cc(Cl)cc(-c2ccnc3cc(CO)sc23)c1O[C@@H]1CCC[C@H]1N(C)C ?
a: > 30000 nM
